# IKZF1 Dmax per record follows
System: IKZF1 (Homo sapiens, UniProt Q13422+Q96SW2)
Construct: expressed in transfected cells
Sequence (Q13422 whole entry): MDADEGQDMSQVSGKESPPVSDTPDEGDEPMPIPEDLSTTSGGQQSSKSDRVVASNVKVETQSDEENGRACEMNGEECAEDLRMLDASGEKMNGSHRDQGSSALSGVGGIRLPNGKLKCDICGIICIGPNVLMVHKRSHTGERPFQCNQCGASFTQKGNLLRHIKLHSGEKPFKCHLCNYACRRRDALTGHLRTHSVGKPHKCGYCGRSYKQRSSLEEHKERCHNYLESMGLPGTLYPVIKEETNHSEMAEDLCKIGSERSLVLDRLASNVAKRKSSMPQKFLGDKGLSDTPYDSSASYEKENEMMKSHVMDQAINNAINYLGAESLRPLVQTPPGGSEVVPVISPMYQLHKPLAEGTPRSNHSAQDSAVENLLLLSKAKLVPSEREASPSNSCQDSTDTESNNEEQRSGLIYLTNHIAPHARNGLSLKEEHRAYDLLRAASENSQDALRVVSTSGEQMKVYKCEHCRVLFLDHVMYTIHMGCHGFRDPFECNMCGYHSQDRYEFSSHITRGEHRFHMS
Sequence (Q96SW2 whole entry): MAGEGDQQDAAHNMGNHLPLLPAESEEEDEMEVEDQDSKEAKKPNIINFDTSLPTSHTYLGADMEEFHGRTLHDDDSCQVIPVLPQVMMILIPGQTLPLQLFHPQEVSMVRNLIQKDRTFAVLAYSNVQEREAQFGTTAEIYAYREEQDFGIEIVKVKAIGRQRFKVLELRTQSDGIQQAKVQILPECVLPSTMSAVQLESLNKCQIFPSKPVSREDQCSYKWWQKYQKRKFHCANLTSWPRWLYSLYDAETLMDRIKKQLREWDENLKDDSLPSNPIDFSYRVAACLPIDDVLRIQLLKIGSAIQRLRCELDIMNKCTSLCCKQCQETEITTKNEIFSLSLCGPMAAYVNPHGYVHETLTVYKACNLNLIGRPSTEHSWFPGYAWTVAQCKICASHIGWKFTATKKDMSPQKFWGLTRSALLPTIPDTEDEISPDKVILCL
Sequence (Q16531 whole entry partner): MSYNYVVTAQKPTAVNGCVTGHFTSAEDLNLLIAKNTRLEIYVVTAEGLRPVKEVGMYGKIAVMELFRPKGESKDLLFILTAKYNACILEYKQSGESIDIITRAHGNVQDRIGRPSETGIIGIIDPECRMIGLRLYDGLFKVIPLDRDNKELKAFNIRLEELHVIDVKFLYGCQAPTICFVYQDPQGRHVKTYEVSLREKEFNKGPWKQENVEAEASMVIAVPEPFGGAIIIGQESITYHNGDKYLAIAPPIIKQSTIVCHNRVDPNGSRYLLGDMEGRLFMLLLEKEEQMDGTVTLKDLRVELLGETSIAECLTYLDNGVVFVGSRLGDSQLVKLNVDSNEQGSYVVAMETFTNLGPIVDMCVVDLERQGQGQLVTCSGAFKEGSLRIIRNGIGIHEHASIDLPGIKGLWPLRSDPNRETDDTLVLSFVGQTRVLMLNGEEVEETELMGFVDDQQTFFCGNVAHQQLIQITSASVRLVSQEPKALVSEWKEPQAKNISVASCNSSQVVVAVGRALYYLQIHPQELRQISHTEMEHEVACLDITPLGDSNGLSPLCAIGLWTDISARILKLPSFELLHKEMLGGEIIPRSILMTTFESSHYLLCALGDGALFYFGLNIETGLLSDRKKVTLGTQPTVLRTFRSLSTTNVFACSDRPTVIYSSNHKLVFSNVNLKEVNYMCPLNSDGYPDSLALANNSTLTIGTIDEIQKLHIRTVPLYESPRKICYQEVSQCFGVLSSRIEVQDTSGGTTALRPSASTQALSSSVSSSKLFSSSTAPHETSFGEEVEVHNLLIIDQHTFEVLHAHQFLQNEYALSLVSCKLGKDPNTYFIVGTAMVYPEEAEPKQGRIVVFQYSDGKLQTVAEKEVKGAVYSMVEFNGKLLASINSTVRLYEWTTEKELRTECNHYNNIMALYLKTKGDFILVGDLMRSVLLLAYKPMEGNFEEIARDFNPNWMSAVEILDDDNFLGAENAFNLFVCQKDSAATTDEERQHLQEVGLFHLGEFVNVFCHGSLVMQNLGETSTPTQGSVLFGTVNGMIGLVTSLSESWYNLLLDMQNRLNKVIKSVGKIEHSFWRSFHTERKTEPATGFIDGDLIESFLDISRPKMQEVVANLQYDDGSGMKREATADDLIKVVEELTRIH
Test name: HEK293 HiBiT in vitro degradation of IKZF1
Format: cell-based
Particulars: HEK293 HiBiT; maximum degradation at the highest concentration tested

| Compound | IKZF1 Dmax [%] |
| --- | --- |
| CC1(C)CC(N[C@H]2CCCC[C@@H]2Cc2ccc3c(c2)CN(C2CCC(=O)NC2=O)C3=O)CCO1 (stereo partly drawn) [Example 110] | 32 |
| O=C1CCC(N2Cc3c(ccc(C[C@H]4CCCC[C@@H]4NCC4CCOCC4)c3F)C2=O)C(=O)N1 (stereo partly drawn) [Example 187] | 37 |
| CC(N[C@H]1CCCC[C@@H]1Cc1ccc2c(c1F)CN(C1CCC(=O)NC1=O)C2=O)C1CCOCC1 (single isomer, unassigned) [Example 288] | 32 |
| O=C1CCC(N2Cc3cc(C[C@H]4CCCC[C@@H]4NC4CCCC[C@@H]4F)ccc3C2=O)C(=O)N1 (stereo partly drawn) [Example 106] | 24 |
| CC1(C)CCC(N[C@H]2CCCO[C@@H]2Cc2ccc3c(c2F)CN(C2CCC(=O)NC2=O)C3=O)C1 (single isomer, unassigned) [Example 259] | 25 |
| O=C1CCC(N2Cc3cc(C[C@H]4CCCC[C@@H]4NC4CCC5(CCO5)CC4)ccc3C2=O)C(=O)N1 (stereo partly drawn) [Example 172] | 28 |
| O=C1CCC(N2Cc3cc(C[C@H]4CCCC[C@@H]4NC4CCC(C(F)(F)F)CC4)ccc3C2=O)C(=O)N1 (single isomer, unassigned) [Example 122] | 45 |
| CC1CCC(N[C@H]2CCCC[C@@H]2Cc2ccc3c(c2)CN(C2CCC(=O)NC2=O)C3=O)CC1 (single isomer, unassigned) [Example 280] | 29 |
| N#CC1CCC(N[C@H]2CCCC[C@@H]2Cc2ccc3c(c2)CN(C2CCC(=O)NC2=O)C3=O)CC1 (single isomer, unassigned) [Example 268] | 62 |
| COCC1CCC(N[C@H]2CCCC[C@@H]2Cc2ccc3c(c2)CN(C2CCC(=O)NC2=O)C3=O)CC1 (single isomer, unassigned) [Example 252] | 31 |
| O=C1CCC(N2Cc3cc(C[C@H]4CCCC[C@@H]4NC4CCc5cn[nH]c5C4)ccc3C2=O)C(=O)N1 (single isomer, unassigned) [Example 359] | 43 |
| COC1CCC(N[C@H]2CCCC[C@@H]2Cc2ccc3c(c2)CN(C2CCC(=O)NC2=O)C3=O)CC1 (single isomer, unassigned) [Example 278] | 37 |
| N#CCC1CCC(N[C@H]2CCCC[C@@H]2Cc2ccc3c(c2)CN(C2CCC(=O)NC2=O)C3=O)CC1 (single isomer, unassigned) [Example 270] | 22 |
| CC(C)OC1CCC(N[C@H]2CCCC[C@@H]2Cc2ccc3c(c2)CN(C2CCC(=O)NC2=O)C3=O)CC1 (single isomer, unassigned) [Example 168] | 39 |
| O=C1CCC(N2Cc3c(ccc(C[C@H]4CCCC[C@@H]4NCC4COC4)c3F)C2=O)C(=O)N1 (stereo partly drawn) [Example 186] | 28 |
